- target or system: MERTK (UniProt Q12866)
- Sequence (Q12866 whole entry, looked up): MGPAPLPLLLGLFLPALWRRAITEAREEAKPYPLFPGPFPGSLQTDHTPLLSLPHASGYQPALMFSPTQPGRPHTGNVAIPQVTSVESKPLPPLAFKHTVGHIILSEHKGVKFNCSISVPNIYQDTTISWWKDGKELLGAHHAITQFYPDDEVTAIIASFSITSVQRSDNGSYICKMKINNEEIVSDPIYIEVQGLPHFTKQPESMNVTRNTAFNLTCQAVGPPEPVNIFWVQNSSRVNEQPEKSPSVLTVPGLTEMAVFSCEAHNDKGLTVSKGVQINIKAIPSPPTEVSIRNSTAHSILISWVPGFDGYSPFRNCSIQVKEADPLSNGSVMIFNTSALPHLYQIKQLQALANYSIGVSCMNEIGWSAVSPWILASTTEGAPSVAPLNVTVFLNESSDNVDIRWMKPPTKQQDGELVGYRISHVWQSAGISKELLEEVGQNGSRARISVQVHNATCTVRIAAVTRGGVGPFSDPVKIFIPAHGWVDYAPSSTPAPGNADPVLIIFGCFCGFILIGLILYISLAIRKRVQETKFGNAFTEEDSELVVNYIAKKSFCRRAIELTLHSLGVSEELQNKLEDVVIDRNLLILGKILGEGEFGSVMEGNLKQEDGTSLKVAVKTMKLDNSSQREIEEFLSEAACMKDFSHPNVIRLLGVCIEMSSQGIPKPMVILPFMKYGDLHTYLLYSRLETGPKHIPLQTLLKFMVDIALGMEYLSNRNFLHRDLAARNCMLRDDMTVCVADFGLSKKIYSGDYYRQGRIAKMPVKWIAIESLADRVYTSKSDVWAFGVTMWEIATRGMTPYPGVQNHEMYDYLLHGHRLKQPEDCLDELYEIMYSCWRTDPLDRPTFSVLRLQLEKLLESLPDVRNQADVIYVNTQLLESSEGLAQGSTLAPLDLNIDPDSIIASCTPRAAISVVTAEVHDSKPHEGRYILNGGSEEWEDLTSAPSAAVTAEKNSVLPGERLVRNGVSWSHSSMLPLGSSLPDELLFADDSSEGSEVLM
- procedure details: phosphorylation enrichment, bacterial display (enrichment ratio); higher = better substrate or ligand; peptides without Tyr show the background;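 further: 11-residue human phosphosite peptides and single-mutation variants displayed on the E. coli surface, counted by deep sequencing, each peptide's frequency after selection divided by its frequency in the unselected input library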;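 further: frequency after pTyr selection over input frequency; kinase dosed for 20-30% of maximal phosphorylation in three min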
Listed below: phosphorylation enrichment values for each entry.
observation type: phosphorylation enrichment

>>> print(df.to_string())
                 construct_sequence        target_or_system            observation_type  recorded_result
0          SLDHPYEKPRK [INAVA_Y333]  MERTK (UniProt Q12866)  phosphorylation enrichment            0.329
1           TPTYPYLLPKS [PLD2_Y580]  MERTK (UniProt Q12866)  phosphorylation enrichment            0.564
2   CDYKKYGKGLR [ZNF445_Y433_Y428C]  MERTK (UniProt Q12866)  phosphorylation enrichment            0.335
3   TRSFKCLLLSM [NF1_Y491_Y491C_YF]  MERTK (UniProt Q12866)  phosphorylation enrichment            0.444
4     VSLLPYFPAIM [IPO4_Y518_A513V]  MERTK (UniProt Q12866)  phosphorylation enrichment            0.369
5  FPIDHYLGKEM [G6PD_Y202_R198P_YF]  MERTK (UniProt Q12866)  phosphorylation enrichment            0.391
6      MQMEEYRGRVE [BTNL2_Y91_W94R]  MERTK (UniProt Q12866)  phosphorylation enrichment            0.383
7      TLSGIYQYNIA [FOXL2_Y81_I84N]  MERTK (UniProt Q12866)  phosphorylation enrichment             9.86
